Readout Name: melting point

- Compound: "O=C1CCNc2ccc(F)cc2N1"
  melting point: "147 to 149 °C"

[Q] Record request: melting point value, item Nc1ccc2c(c1)C(=O)NS2(=O)=O
[A] 286 to 288 °C

[Q] Record request: melting point value, item O=C(O)c1c[nH]c2ccc(Br)cc12
[A] 238 to 240 °C

[Q] Record request: melting point value, item Cc1cc(C(=O)O)c2c(C)nn(C(C)(C)C)c2n1
[A] 189 to 191 °C

----------
Readout Name: melting point

[Q] Record request: melting point value, item O=C(NCc1ccccc1)c1ccnc(Cl)c1
[A] 99 to 101 °C

----------
Readout Name: melting point

Worked examples, 10 compounds total:
- Compound: "CSc1nc(C)nc(C)c1C(=O)O"
  melting point: "223 to 225 °C"
- Compound: "COCCOc1c(Cl)cc(N)cc1Cl"
  melting point: "58 to 60 °C"
- Compound: "CCC(=O)c1ccc(Oc2ccccc2)cc1"
  melting point: "39 to 41 °C"
- Compound: "CC(C)(C)C(=O)Cn1cc(C(=O)O)nn1"
  melting point: "198 to 200 °C"
- Compound: "COc1ccc(NC(=O)c2ccc(Br)cc2)c(C)c1"
  melting point: "164 to 166 °C"
- Compound: "Nc1nc(-c2cccs2)ns1"
  melting point: "163 to 165 °C"
- Compound: "CC1CC(C)CC2(C1)NC(=O)N(CC(=O)O)C2=O (centres undefined)"
  melting point: "259 to 261 °C"
- Compound: "COC(=O)c1ccc(CN2C(=O)CSC2=O)cc1"
  melting point: "117 to 119 °C"
- Compound: "C=CCn1c(S)nnc1-c1ccoc1C"
  melting point: "293 to 295 °C"
- Compound: "CCC(C)C(=O)NN (centres undefined)"
  melting point: "88 to 90 °C"

[Q] Record request: melting point value, item COc1ccc(Cn2ncc3cc(C(=O)O)cnc32)c(OC)c1
[A] 205 to 207 °C

[Q] Record request: melting point value, item Cc1nnc(N2CCCC2)c(C(N)=S)c1C
[A] 169 to 171 °C

[Q] Record request: melting point value, item Cc1ccc(-c2nc(S)n[nH]2)cc1
[A] 125 to 128 °C

[Q] Record request: melting point value, item COc1ccc(C(CNC(=O)CCl)c2c[nH]c3ccccc23)cc1 (centres undefined)
[A] 157 to 159 °C

[Q] Record request: melting point value, item O=C(O)C=Cc1cc(Cl)ccc1OCc1ccc(F)cc1
[A] 166 to 168 °C

[Q] Record request: melting point value, item CC(C)(C)OC(=O)N1CCC(OC(=O)c2ccccc2N)CC1
[A] 120 to 122 °C

[Q] Record request: melting point value, item CCN(CC)c1ccc(C=C[N+](=O)[O-])cc1
[A] 98 to 100 °C

[Q] Record request: melting point value, item CCOC(=O)Cc1nc2cc(Cl)ccc2s1
[A] 79 to 81 °C

[Q] Record request: melting point value, item O=C(O)C1(c2cccc(Br)c2)CCOCC1
[A] 152 to 154 °C

[Q] Record request: melting point value, item Clc1ccnc2[nH]ccc12
[A] 176 to 181 °C

[Q] Record request: melting point value, item COC(=O)c1ccc(OCC#N)cc1
[A] 95 to 97 °C

[Q] Record request: melting point value, item CCOC(=O)CS(=O)(=O)c1ccc(Br)cc1
[A] 45 to 47 °C

[Q] Record request: melting point value, item NC(=O)c1cccc(C(N)=S)c1
[A] 210 to 212 °C

[Q] Record request: melting point value, item CCCCn1c(N)c(NC2CCCC2)c(=O)[nH]c1=O
[A] 250 to 252 °C

[Q] Record request: melting point value, item O=C1CCOc2ccccc2N1
[A] 109 to 111 °C

[Q] Record request: melting point value, item Cc1ccc(-n2nnc(C(=O)O)c2C2CC2)cc1
[A] 173 to 175 °C

[Q] Record request: melting point value, item Nc1cc(=O)[nH]c(=O)n1Cc1ccc(Cl)cc1
[A] 279 to 281 °C

----------
Items are presented alongside their recorded melting point.

[Q] Record request: melting point value, item Cc1noc(C)c1S(=O)(=O)NC(C)C(=O)O (centres undefined)
[A] 135 to 137 °C

[Q] Record request: melting point value, item Sc1nnc(Cc2ccccc2)o1
[A] 124 to 126 °C

[Q] Record request: melting point value, item CCOC=C1C(=O)N(c2ccc(Cl)cn2)C(=O)c2ccccc21
[A] 200 to 202 °C

[Q] Record request: melting point value, item Cc1cc(CCCC(=O)O)c(C)s1
[A] 56 to 58 °C

[Q] Record request: melting point value, item CCOc1cc(Cl)ccc1C(=O)O
[A] 119 to 121 °C

[Q] Record request: melting point value, item NS(=O)(=O)c1ccc(C(=O)O)cc1Cl
[A] 231 to 233 °C

[Q] Record request: melting point value, item COC(=O)c1cc(N)cc(S(C)(=O)=O)c1
[A] 194 to 196 °C

[Q] Record request: melting point value, item COc1ccccc1-c1cc(N)[nH]n1
[A] 94 to 96 °C

----------
Items are presented alongside their recorded melting point.

Worked examples, 5 compounds total:
- Compound: "COc1ccc(S(=O)(=O)Cl)cc1CC(=O)O"
  melting point: "149 to 151 °C"
- Compound: "NC(=O)c1c(N)sc2c1CCCC2"
  melting point: "153 to 155 °C"
- Compound: "NC(=O)CSc1ccccc1NC(=O)CCl"
  melting point: "129 to 131 °C"
- Compound: "Nc1ccnn1CC1CCCCC1"
  melting point: "59 to 61 °C"
- Compound: "O=C(O)C1CC1c1ccc2c(c1)OCCO2 (centres undefined)"
  melting point: "160 to 162 °C"

[Q] Record request: melting point value, item Cc1c(C(=O)O)oc2c(Br)cccc12
[A] 204 to 206 °C

[Q] Record request: melting point value, item CC(C)(C)NC(=O)CCl
[A] 75 to 77 °C

[Q] Record request: melting point value, item CC(C)(CCC(=O)O)NC(=O)OC(C)(C)C
[A] 91 to 93 °C

[Q] Record request: melting point value, item COCCOc1ncccc1C(=O)O
[A] 58 to 60 °C

[Q] Record request: melting point value, item OC(c1c(Cl)cccc1Cl)C1CCOCC1 (centres undefined)
[A] 106 to 108 °C

[Q] Record request: melting point value, item O=c1ccc(S(=O)(=O)N2CCCCC2)c[nH]1
[A] 239 to 241 °C

----------
Readout Name: melting point

Worked examples, 2 compounds total:
- Compound: "Cc1ccn2cc(C(=O)O)nc2c1"
  melting point: "225 to 229 °C"
- Compound: "O=C(O)c1cccc(Nc2cnccn2)c1"
  melting point: "239 to 241 °C"

[Q] Record request: melting point value, item CCS(=O)(=O)c1ccc(S(=O)(=O)Cl)cc1
[A] 104 to 106 °C

[Q] Record request: melting point value, item O=C(O)c1ccc(-c2cccs2)o1
[A] 169 to 171 °C

[Q] Record request: melting point value, item O=C(O)CCNC(=O)c1ccc(Br)cc1
[A] 142 to 144 °C

[Q] Record request: melting point value, item Cc1ccc(C(C)C)c2c1C(=O)CCO2
[A] 36 to 38 °C

[Q] Record request: melting point value, item CC(C)(C)OC(=O)N1CCN(CC(O)c2ccco2)CC1 (configuration not stated)
[A] 57 to 59 °C

----------
Items are presented alongside their recorded melting point.

Worked examples, 5 molecules total:
- Molecule: "O=C(O)Cc1csc(-c2cc(Br)cs2)n1"
  melting point: "129 to 131 °C"
- Molecule: "COc1ccc(OC)c(C(O)CN)c1 (stereo not given)"
  melting point: "96 to 98 °C"
- Molecule: "CC(C)S(=O)(=O)c1ccccc1C(=O)O"
  melting point: "149 to 151 °C"
- Molecule: "Sc1nnc(-c2ccccc2)c2ccccc12"
  melting point: "178 to 180 °C"
- Molecule: "CC(=O)CC(=O)Nc1cccc(F)c1"
  melting point: "81 to 83 °C"

[Q] Record request: melting point value, item COC(C)(C(=O)O)c1ccccc1 (stereo not given)
[A] 44 to 46 °C

[Q] Record request: melting point value, item COc1cc2c(cc1OC)CC(=O)NCC2
[A] 192 to 194 °C

[Q] Record request: melting point value, item Cn1nc(Br)c2c(NN)ncnc21
[A] 198 to 200 °C

[Q] Record request: melting point value, item CC(O)CNS(=O)(=O)c1ccc(C(=O)O)cc1 (stereo not given)
[A] 208 to 210 °C

[Q] Record request: melting point value, item Cc1[nH]c(=O)sc1C
[A] 146 to 148 °C

[Q] Record request: melting point value, item O=C(O)c1cccc(CN2C(=O)c3ccccc3C2=O)c1
[A] 202 to 212 °C

[Q] Record request: melting point value, item O=Cc1ccc(OCc2ncon2)cc1
[A] 98 to 100 °C

[Q] Record request: melting point value, item CCc1cc(O)ncc1Br
[A] 109 to 111 °C

[Q] Record request: melting point value, item Cc1cccc(OCCCC(=O)O)c1
[A] 55 to 57 °C
